The compounds listed here are annotated with their T/C.
Tested on: P388
PROTOCOL SUMMARY: In vivo antitumor activity against mouse P388 cells allografted in BDF/CDF mouse assessed as host survival time at 1 mg/kg, ip administered on days 1 to 9 relative to control
Format: functional
ASSAY SETUP: route intraperitoneal

COMPOUND: COc1cccc2c1C(=O)c1c(O)c3c(c(O)c1C2=O)C[C@@](O)(/C(CO)=N/NC(=O)c1ccccc1)C[C@@H]3O[C@H]1C[C@H](N)[C@H](O)[C@H](C)O1.Cl
SCALE UNIT: %
T/C: 154

COMPOUND: CCCCOc1ccc(C(=O)N/N=C(\C)[C@]2(O)Cc3c(O)c4c(c(O)c3[C@@H](O[C@H]3C[C@H](N)[C@H](O)[C@H](C)O3)C2)C(=O)c2c(OC)cccc2C4=O)cc1.Cl
SCALE UNIT: %
T/C: 152

COMPOUND: COc1cccc2c1C(=O)c1c(O)c3c(c(O)c1C2=O)C[C@@](O)(/C(C)=N/NC(=O)c1ccc(Cl)cc1)C[C@@H]3O[C@H]1C[C@H](N)[C@H](O)[C@H](C)O1.Cl
SCALE UNIT: %
T/C: 145

COMPOUND: COc1cccc2c1C(=O)c1c(O)c3c(c(O)c1C2=O)C[C@@](O)(/C(C)=N/NC(=O)c1ccc(O)cc1)C[C@@H]3O[C@H]1C[C@H](N)[C@H](O)[C@H](C)O1.Cl
SCALE UNIT: %
T/C: 145

COMPOUND: COc1cccc2c1C(=O)c1c(O)c3c(c(O)c1C2=O)C[C@@](O)(/C(C)=N/NC(=O)c1ccc(-c2ccccc2)cc1)C[C@@H]3O[C@H]1C[C@H](N)[C@H](O)[C@H](C)O1.Cl
SCALE UNIT: %
T/C: 157

COMPOUND: COc1cccc2c1C(=O)c1c(O)c3c(c(O)c1C2=O)C[C@@](O)(/C(C)=N/NC(=O)c1ccc(N(C)C)cc1)C[C@@H]3O[C@H]1C[C@H](N)[C@H](O)[C@H](C)O1.Cl
SCALE UNIT: %
T/C: 154

COMPOUND: CCc1ccc(C(=O)N/N=C(\C)[C@]2(O)Cc3c(O)c4c(c(O)c3[C@@H](O[C@H]3C[C@H](N)[C@H](O)[C@H](C)O3)C2)C(=O)c2c(OC)cccc2C4=O)cc1.Cl
SCALE UNIT: %
T/C: 154

COMPOUND: COc1cccc2c1C(=O)c1c(O)c3c(c(O)c1C2=O)C[C@@](O)(/C(CO)=N/NC(=O)c1ccc(Cl)c(Cl)c1)C[C@@H]3O[C@H]1C[C@H](N)[C@H](O)[C@H](C)O1.Cl
SCALE UNIT: %
T/C: 172

COMPOUND: COc1ccc(C(=O)N/N=C(\C)[C@]2(O)Cc3c(O)c4c(c(O)c3[C@@H](O[C@H]3C[C@H](N)[C@H](O)[C@H](C)O3)C2)C(=O)c2c(OC)cccc2C4=O)cc1.Cl
SCALE UNIT: %
T/C: 158

COMPOUND: COc1cccc2c1C(=O)c1c(O)c3c(c(O)c1C2=O)C[C@@](O)(/C(C)=N/NC(=O)c1ccc(Cl)c(Cl)c1)C[C@@H]3O[C@H]1C[C@H](N)[C@H](O)[C@H](C)O1.Cl
SCALE UNIT: %
T/C: 166

COMPOUND: COc1cccc2c1C(=O)c1c(O)c3c(c(O)c1C2=O)C[C@@](O)(/C(C)=N/NC(=O)c1cccc([N+](=O)[O-])c1)C[C@@H]3O[C@H]1C[C@H](N)[C@H](O)[C@H](C)O1.Cl
SCALE UNIT: %
T/C: 146

COMPOUND: COc1cccc2c1C(=O)c1c(O)c3c(c(O)c1C2=O)C[C@@](O)(/C(C)=N/NC(=O)c1ccccc1)C[C@@H]3O[C@H]1C[C@H](N)[C@H](O)[C@H](C)O1.Cl [ZORUBICIN HYDROCHLORIDE]
SCALE UNIT: %
T/C: 152

COMPOUND: COc1cccc2c1C(=O)c1c(O)c3c(c(O)c1C2=O)C[C@@](O)(C(C)=O)C[C@@H]3O[C@H]1C[C@H](N)[C@H](O)[C@H](C)O1
SCALE UNIT: %
T/C: 162

COMPOUND: COc1cccc2c1C(=O)c1c(O)c3c(c(O)c1C2=O)C[C@@](O)(C(=O)CO)C[C@@H]3O[C@H]1C[C@H](N)[C@H](O)[C@H](C)O1.Cl [DOXORUBICIN HYDROCHLORIDE]
SCALE UNIT: %
T/C: 193
